system.name: Protein arginine N-methyltransferase 8 (Homo sapiens, UniProt Q9NR22)
Sequence (Q9NR22 2-394 limits assumed): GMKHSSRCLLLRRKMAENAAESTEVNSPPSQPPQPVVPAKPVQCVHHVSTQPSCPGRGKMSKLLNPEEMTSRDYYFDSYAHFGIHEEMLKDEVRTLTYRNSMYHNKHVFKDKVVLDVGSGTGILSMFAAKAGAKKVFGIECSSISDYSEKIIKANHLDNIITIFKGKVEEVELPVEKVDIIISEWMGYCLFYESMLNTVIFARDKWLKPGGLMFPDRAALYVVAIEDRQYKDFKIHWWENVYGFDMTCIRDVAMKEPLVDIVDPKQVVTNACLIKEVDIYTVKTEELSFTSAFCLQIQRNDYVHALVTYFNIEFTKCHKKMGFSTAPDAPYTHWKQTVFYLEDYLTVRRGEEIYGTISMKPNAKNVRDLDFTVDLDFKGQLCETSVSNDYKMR
assay.notes: Inhibition of human PRMT8 using Histone H4 as substrate and SAM as cofactor at 10 uM by radiometric HotSpot assay relative to control
inhibition for assorted compounds

Here's what some known entries look like.
line.notation: N=C(NCCCSC[C@H]1O[C@@H](n2cnc3c(N)ncnc32)[C@H](O)[C@@H]1O)NCc1ccccc1
inhibition: > 95%

line.notation: Nc1ncnc2c1ncn2[C@@H]1O[C@H](CSCCCNCc2cccc(-c3ccc(F)c(O)c3)c2)[C@@H](O)[C@H]1O
inhibition: > 50%

line.notation: Nc1ncnc2c1ncn2[C@@H]1O[C@H](CSCCNC(=O)Nc2ccc(Cl)cc2)[C@@H](O)[C@H]1O
inhibition: < 30%

line.notation: Nc1ncnc2c1ncn2[C@@H]1O[C@H](CSCCNCc2cccc(-c3ccccc3O)c2)[C@@H](O)[C@H]1O
inhibition: > 50%

line.notation: Nc1cccc(-c2cccc(CNCCSC[C@H]3O[C@@H](n4cnc5c(N)ncnc54)[C@H](O)[C@@H]3O)c2)c1
inhibition: > 50%

line.notation: N=C(NCCSC[C@H]1O[C@@H](n2cnc3c(N)ncnc32)[C@H](O)[C@@H]1O)Nc1ccccc1
inhibition: > 95%

Qu. If you can, please state the reported inhibition value of COc1cc2nc(-c3cccc(F)c3)nc(NCCSC[C@H]3O[C@@H](n4cnc5c(N)ncnc54)[C@H](O)[C@@H]3O)c2cc1OC .
Ans. < 50%

Qu. If you can, please state the reported inhibition value of N=C(NCCCSC[C@H]1O[C@@H](n2cnc3c(NCCCc4ccccc4)ncnc32)[C@H](O)[C@@H]1O)NCC1CC1 .
Ans. 70%

Qu. If you can, please state the reported inhibition value of N=C(NCCCSC[C@H]1O[C@@H](n2cnc3c(NCCCc4ccccc4)ncnc32)[C@H](O)[C@@H]1O)NC1CCCC1 .
Ans. 70%

Qu. If you can, please state the reported inhibition value of N=C(NCCCSC[C@H]1O[C@@H](n2cnc3c(NCCCc4ccccc4)ncnc32)[C@H](O)[C@@H]1O)NCCc1ccccc1 .
Ans. 70%

Qu. If you can, please state the reported inhibition value of Nc1ncnc2c1ncn2[C@@H]1O[C@H](CSCCNCc2cccc(-c3cccc4cn[nH]c34)c2)[C@@H](O)[C@H]1O .
Ans. > 50%

Qu. If you can, please state the reported inhibition value of Nc1ncnc2c1ncn2[C@@H]1O[C@H](CSCCOc2ccc(-c3ccc(Cl)cc3)cc2)[C@@H](O)[C@H]1O .
Ans. < 50%

Qu. If you can, please state the reported inhibition value of Nc1ncnc2c1ncn2[C@@H]1O[C@H](CSCCCNCc2cccc(-c3ccoc3)c2)[C@@H](O)[C@H]1O .
Ans. > 50%

Qu. If you can, please state the reported inhibition value of Nc1ncnc2c1ncn2[C@@H]1O[C@H](CSCCCNC(=O)NCc2ccccc2)[C@@H](O)[C@H]1O .
Ans. < 30%

Qu. If you can, please state the reported inhibition value of Nc1ncnc2c1ncn2[C@@H]1O[C@H](CSCCNC(=O)NCCc2ccccc2)[C@@H](O)[C@H]1O .
Ans. < 30%

Qu. If you can, please state the reported inhibition value of N=C(NCCCSC[C@H]1O[C@@H](n2cnc3c(NCCCc4ccccc4)ncnc32)[C@H](O)[C@@H]1O)NCc1ccccc1 .
Ans. 70%

Qu. If you can, please state the reported inhibition value of CCCCNC(=N)NCCCSC[C@H]1O[C@@H](n2cnc3c(NCCCc4ccccc4)ncnc32)[C@H](O)[C@@H]1O .
Ans. 70%

Qu. If you can, please state the reported inhibition value of Nc1ncnc2c1ncn2[C@@H]1O[C@H](CSCCNCc2cccc(-c3cccc(F)c3)c2)[C@@H](O)[C@H]1O .
Ans. > 50%

Qu. If you can, please state the reported inhibition value of Nc1ncnc2c1ncn2[C@@H]1O[C@H](CSCCCNC(=O)NCc2ccc3c(c2)OCO3)[C@@H](O)[C@H]1O .
Ans. < 30%

Qu. If you can, please state the reported inhibition value of Nc1cccc(-c2ccc(CNC(=O)NCCSC[C@H]3O[C@@H](n4cnc5c(N)ncnc54)[C@H](O)[C@@H]3O)cc2)c1 .
Ans. < 30%

Qu. If you can, please state the reported inhibition value of Nc1ncnc2c1ncn2[C@@H]1O[C@H](CSCCOc2ccc(-c3cncnc3)cc2)[C@@H](O)[C@H]1O .
Ans. < 50%
